The measured values listed here are drawn from patent US9540373B2.

assay: Determination of metabolic stability with human liver microsomes; format: in vitro ADME; conditions: pH 7.6; pooled human liver microsomes, 1 mg/ml protein, 1 μM compound, 37° C., NADPH; read-out: In vitro stability in human liver microsome incubations t1/2
observation.type: half-life at 1 μM

IN: Indicate its recorded half-life at 1 μM; the compound in question is N#C[C@H](Cc1ccc(-c2ccc3c(c2)C2(CCNCC2)OC3)cc1F)NC(=O)[C@H]1N[C@@H]2CC[C@H]1C2
OUT: > 2.17 h

IN: Indicate its recorded half-life at 1 μM; the compound in question is CN1CCCC2(C1)C(=O)N(C)c1ccc(-c3ccc(C[C@@H](C#N)NC(=O)[C@H]4N[C@@H]5CC[C@H]4C5)c(F)c3)cc12 (stereo partly drawn)
OUT: 1 h

IN: Indicate its recorded half-life at 1 μM; the compound in question is CN1CCC2(C1)OC(=O)c1ccc(-c3ccc(C[C@@H](C#N)NC(=O)[C@H]4N[C@@H]5CC[C@H]4C5)c(F)c3)cc12 (stereo partly drawn)
OUT: > 2.17 h

IN: Indicate its recorded half-life at 1 μM; the compound in question is CN1CCC2(CC1)C(=O)N(C)c1ccc(-c3ccc(C[C@@H](C#N)NC(=O)[C@H]4N[C@@H]5CC[C@H]4C5)c(F)c3)cc12
OUT: > 2.17 h

IN: Indicate its recorded half-life at 1 μM; the compound in question is CN1CCC2(CC1)OCc1cnc(-c3ccc(C[C@@H](C#N)NC(=O)[C@H]4N[C@@H]5CC[C@H]4C5)c(F)c3)cc12
OUT: 0.917 h

IN: Indicate its recorded half-life at 1 μM; the compound in question is N#C[C@H](Cc1ccc(-c2ccc3c(c2)C2(CCNCC2)OC3=O)cc1F)NC(=O)[C@H]1N[C@@H]2CC[C@H]1C2
OUT: > 2.17 h
